Biological target: Human immunodeficiency virus type 1 integrase (Human immunodeficiency virus 1)
Sequence (Q7ZJM1 whole entry): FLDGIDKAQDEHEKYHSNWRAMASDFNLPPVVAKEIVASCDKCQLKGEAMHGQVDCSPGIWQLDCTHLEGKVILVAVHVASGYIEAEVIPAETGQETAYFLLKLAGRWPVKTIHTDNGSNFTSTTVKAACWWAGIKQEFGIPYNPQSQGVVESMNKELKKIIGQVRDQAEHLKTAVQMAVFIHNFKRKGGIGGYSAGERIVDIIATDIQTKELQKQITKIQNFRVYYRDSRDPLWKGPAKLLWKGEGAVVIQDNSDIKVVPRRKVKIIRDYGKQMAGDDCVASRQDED
Test: Inhibitory concentration against HIV-1 integrase
IC50 reference
# number only, unit nM dropped from output

Examples with their reported IC50 follow.
[[record]]
cpd_smiles = "O=C(O)/C=C/c1ccc(O)c(Oc2cc3cc(O)c(O)cc3oc2=O)c1"
system_name = "Human immunodeficiency virus type 1 integrase (Human immunodeficiency virus 1)"
numeric_value = 1000

[[record]]
cpd_smiles = "O=c1oc2cc(O)c(O)cc2cc1O"
system_name = "Human immunodeficiency virus type 1 integrase (Human immunodeficiency virus 1)"
numeric_value = 2000


Here's the next entry for you.
IC50 for O=C(O)/C=C/c1ccc(Oc2cc3cc(O)c(O)cc3oc2=O)c(O)c1 ?
2000
